protocol_text: Solubility in PBS buffer at pH 7.4 assessed as precipitation of compound at 5000 nM
Type: physicochemical
test_conditions: pH 7.4, 5 µM
measurement_kind: solubility

smiles_repr	assay_value
CN(C)CCOC(=O)c1cc2cc3c(cc2s1)OCO3	Insoluble
CN(C)CCNC(=O)c1cc2cc3c(cc2s1)OCO3	Insoluble

====

test_target: UniProtKB P10635
Sequence (P10635 whole entry): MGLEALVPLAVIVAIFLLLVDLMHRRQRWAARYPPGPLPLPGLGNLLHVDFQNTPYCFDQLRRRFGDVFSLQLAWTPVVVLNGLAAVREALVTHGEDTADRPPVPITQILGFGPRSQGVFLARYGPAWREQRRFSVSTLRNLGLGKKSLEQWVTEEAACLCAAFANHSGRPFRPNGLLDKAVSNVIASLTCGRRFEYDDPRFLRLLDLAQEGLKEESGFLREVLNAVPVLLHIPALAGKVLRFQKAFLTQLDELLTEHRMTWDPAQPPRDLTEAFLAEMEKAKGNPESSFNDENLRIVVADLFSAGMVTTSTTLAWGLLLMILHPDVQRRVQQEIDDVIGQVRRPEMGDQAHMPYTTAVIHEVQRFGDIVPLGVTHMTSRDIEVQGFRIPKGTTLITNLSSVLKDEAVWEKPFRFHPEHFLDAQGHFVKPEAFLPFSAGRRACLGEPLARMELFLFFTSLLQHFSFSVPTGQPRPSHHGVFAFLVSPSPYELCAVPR
measurement_kind: IC50 (µM)

smiles_repr	output_unit	assay_value
COc1ccc2cc(C(=O)NCCN(C)C)oc2c1.CS(=O)(=O)O	µM	7.84

====

protocol_text: Permeability across apical to basolateral side in human Caco-2 cells assessed as transepithelial electrical resistance at 10 uM incubated for 2 hrs LC-MS/MS analysis
Format: ADME, cell-based
test_conditions: caco-2, 2 h
Parameter Activity: see the listing below.

compound	Activity
CN/C(=N/CCSCc1nc[nH]c1C)NC#N	318 Ω·cm²
CC[C@H]1OC(=O)[C@H](C)[C@@H](O[C@H]2C[C@@](C)(OC)[C@@H](O)[C@H](C)O2)[C@H](C)[C@@H](O[C@@H]2O[C@H](C)C[C@H](N(C)C)[C@H]2O)[C@](C)(O)C[C@@H](C)C(=O)[C@H](C)[C@@H](O)[C@]1(C)O	396 Ω·cm²
CC(=O)c1cc2ccccc2s1	351 Ω·cm²
COCCc1ccc(OCC(O)CNC(C)C)cc1 (stereo unspecified)	326 Ω·cm²
COc1ccc2cc(C(=O)NCCN(C)C)oc2c1.CS(=O)(=O)O	341 Ω·cm²
CCOC(=O)c1cc2ccc(OC)cc2o1	373 Ω·cm²

Origin of values: ChEMBL document CHEMBL4765342
